The reported measurements were obtained from PubChem BioAssay (NCI).

test: NCI Yeast Anticancer Drug Screen. Data for the mec2-1 strain (AID 157); settings: S. cerevisiae mec2-1 strain, at 50.0 µM
This is part of a sample that, as a whole, favours compounds with a hit. Of some 79,000 tested, about 15% had one in any assay. Activity calls are given as the source filed them. Rule as the data show it: active = growth inhibition above about 70%; inactive = the rest.
In this exercise, the only acceptable responses are active, inactive

QUERY: Recorded test outcome, item CCn1c(=O)c2c3ccc(OC(C)=O)cc3[nH]c2c2ccc(OC(C)=O)cc21
RESULT: inactive

QUERY: Recorded test outcome, item CC(=O)c1cc(C)oc1C
RESULT: inactive

QUERY: Recorded test outcome, item c1ccc2c(c1)NC1(CCCCC1)S2
RESULT: inactive

QUERY: Recorded test outcome, item Nc1ccccc1Sc1ccc(C(=O)O)cc1[N+](=O)[O-]
RESULT: inactive

QUERY: Recorded test outcome, item CN(C)c1ccc(C=C(C(=O)O)C(=O)O)cc1
RESULT: inactive

***
QUERY: Recorded test outcome, item COc1cccc(C(=O)c2ccc(OC)cc2C(=O)O)c1
RESULT: inactive

QUERY: Recorded test outcome, item COc1ccccc1C(=O)N/N=C/c1ccc(O)cc1
RESULT: inactive

QUERY: Recorded test outcome, item CC(=O)c1cccc(NC(=O)C(=O)C(C2OC(=O)c3ccccc32)[N+](=O)[O-])c1 (configuration not stated)
RESULT: inactive

QUERY: Recorded test outcome, item CCC[CH2][Sn]([CH2]CCC)([O]C(=O)c1ccc(OC)c(OC)c1OC)[O][Sn]([CH2]CCC)([CH2]CCC)[O]C(=O)c1ccc(OC)c(OC)c1OC
RESULT: active

QUERY: Recorded test outcome, item O=C1c2ccccc2C(=O)c2c1cc1c(c2O)OCO1
RESULT: inactive

QUERY: Recorded test outcome, item CCS(=O)(=O)/C=C/c1ccco1
RESULT: inactive

QUERY: Recorded test outcome, item O=C(Nc1cc(C(F)(F)F)ccc1Cl)C(=O)C(C(=O)c1ccc2ccccc2c1)C1OC(=O)c2ccccc21 (configuration not stated)
RESULT: inactive

QUERY: Recorded test outcome, item NC12CCC(CC1)C2
RESULT: inactive

QUERY: Recorded test outcome, item NCC(=O)N1CCCCC1
RESULT: inactive

QUERY: Recorded test outcome, item CC(C)(Oc1ccc(Cl)cc1)C(=O)NC1CC(C)(C)N(O)C(C)(C)C1
RESULT: inactive

QUERY: Recorded test outcome, item O=c1[nH]c2c(Cl)c(Cl)cc(Cl)c2o1
RESULT: inactive

QUERY: Recorded test outcome, item COc1cc(C(C)c2cc3c(cc2O)OCO3)cc(OC)c1OC (configuration not stated)
RESULT: inactive

QUERY: Recorded test outcome, item Cc1cc(OC(C)C)cc(C)c1C(=O)OCC(C)N1CCCC1 (configuration not stated)
RESULT: inactive

QUERY: Recorded test outcome, item CC(=O)/C(=C/n1ccc(=O)[nH]c1=S)C(=O)Nc1ccc([N+](=O)[O-])cc1
RESULT: inactive

----------
# growth inhibition per record follows
assay: NCI Yeast Anticancer Drug Screen. Data for the rad50 strain (AID 155);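 also: 0% = growth of vehicle-only cultures of the same strain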; conditions: S. cerevisiae rad50 strain growth inhibition; at 50.0 µM; active compounds read high
Compounds without any hit were thinned out: in the full panel of roughly 79,000, 15% have a hit.
# output: bare number, implied unit %

QUERY: Please list growth inhibition recorded for the molecule CCCCOC(=O)C(C)O (stereo not given)
RESULT: 41.1

QUERY: Please list growth inhibition recorded for the molecule Cc1c([N+](=O)[O-])cc2c(c1[N+](=O)[O-])C(=O)c1ccccc1-2
RESULT: -2.1

QUERY: Please list growth inhibition recorded for the molecule CCOC(=O)C1C(=O)CC(O)(c2ccccc2)C(C(=O)OCC)C1c1ccc(OC)cc1 (stereo not given)
RESULT: -17.9

QUERY: Please list growth inhibition recorded for the molecule Cc1nc(C(N)=S)sc1C(=O)CC(=O)C(=O)Nc1cccc(Cl)c1C
RESULT: 1.2

QUERY: Please list growth inhibition recorded for the molecule O=C(NCCNC(=O)c1cccc([N+](=O)[O-])c1O)c1cccc([N+](=O)[O-])c1O
RESULT: 19.6

***
QUERY: Please list growth inhibition recorded for the molecule COc1cc2c(cc1OC)C(Cl)C(c1ccc(Cl)c(Cl)c1)=C2Cl (stereo not given)
RESULT: -0.65

QUERY: Please list growth inhibition recorded for the molecule NNC(=O)c1ccco1
RESULT: 27.2

QUERY: Please list growth inhibition recorded for the molecule CC(=O)OC1[C@H](OC(C)=O)C2=C(C)[C@@H](OC(C)=O)C[C@@]2(C(C)(C)O)[C@@H](OC(C)=O)[C@H]2[C@@]1(C)[C@@H](OC(C)=O)CC(OC(C)=O)[C@]21CO1 (stereo not given in full)
RESULT: 3.4

QUERY: Please list growth inhibition recorded for the molecule COc1ccc([N+](=O)[O-])c2ccc(=O)oc12
RESULT: -9.9

QUERY: Please list growth inhibition recorded for the molecule Cc1ccc(N/N=c2\c3nc4ccccc4nc2n(-c2ccccc2C)c(=S)n3-c2ccc(C)cc2)cc1
RESULT: -19.6
